Source of measurements: the MegaScale stability set (Tsuboyama et al. 2023)

B1: 2M8U (parent)
chain: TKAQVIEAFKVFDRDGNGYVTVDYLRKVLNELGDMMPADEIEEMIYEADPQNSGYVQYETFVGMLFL

variants of: B1; assay: folding stability dG (cDNA display proteolysis); higher = more stable; settings: PBS, room temperature
VALUE KIND: folding stability dG

D15M | 3.03 kcal/mol
A8I | 3.5 kcal/mol
I6N | 2.55 kcal/mol
P50E | 2.89 kcal/mol
E31C | 3.41 kcal/mol
L29F | 3.2 kcal/mol
T21Y | 3.38 kcal/mol
V20H | 1.98 kcal/mol
G63Y | 3.48 kcal/mol
E7A | 3.46 kcal/mol
L29W | 2.91 kcal/mol
P37E | 3.34 kcal/mol
T1W | 3.1 kcal/mol
F61E | 0.86 kcal/mol
N52Y | 3.31 kcal/mol
M64I | 3.15 kcal/mol
E40Y | 4.06 kcal/mol
L65I | 3.11 kcal/mol
D13F | 2.65 kcal/mol
Q57Y | 3.51 kcal/mol
I41A | 2.86 kcal/mol
P50L | 3.21 kcal/mol
F12P | 1.89 kcal/mol
V20T | 3.33 kcal/mol
V28I | 3.32 kcal/mol
S53M | 3.23 kcal/mol
M44R | 3.66 kcal/mol
D13I | 2.4 kcal/mol
D49E | 2.25 kcal/mol
E47W | 3.76 kcal/mol
F61Q | 1.17 kcal/mol
A38V | 3.61 kcal/mol
F61T | 1.87 kcal/mol
N30R | 3.54 kcal/mol
E7R | 2.85 kcal/mol
G54R | 2.56 kcal/mol
F61A | 2.41 kcal/mol
Y46W | 3.56 kcal/mol
Q57F | 3.62 kcal/mol
G33F | 3.94 kcal/mol
E43C | 3.74 kcal/mol
V5C | 3.17 kcal/mol
T60V | 3.31 kcal/mol
F9I | 4.09 kcal/mol
G54Y | 2.93 kcal/mol
V22A | 2.95 kcal/mol
K2I | 3.46 kcal/mol
E31S | 3.64 kcal/mol
Q4I | 3.15 kcal/mol
G54L | 2.48 kcal/mol
V5Y | 4.08 kcal/mol
A38T | 3.6 kcal/mol
S53P | 2.4 kcal/mol
E40G | 4.01 kcal/mol
E59F | 3.54 kcal/mol
V62I | 3.29 kcal/mol
L25C | 2.88 kcal/mol
E7K | 3.1 kcal/mol
K27P | 2.04 kcal/mol
G54T | 2.35 kcal/mol
Q4F | 2.87 kcal/mol
E40S | 3.7 kcal/mol
I41M | 3.57 kcal/mol
V11D | 3.13 kcal/mol
F66D | 2.96 kcal/mol
T60S | 3.6 kcal/mol
V22E | 2.47 kcal/mol
E31A | 3.47 kcal/mol
G18R | 2.06 kcal/mol
D15V | 2.94 kcal/mol
A38P | 3.47 kcal/mol
Y58N | 1.27 kcal/mol
Y46G | 3.44 kcal/mol
E47L | 3.88 kcal/mol
